// protein stability index lookup, one value per entry
B1: PBXIP1 (parent)
chain: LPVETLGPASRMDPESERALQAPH

variants of: B1; experiment: protein stability index of a GFP-peptide fusion (GPS, HEK-293T) (PSI 1-6); higher = more stable; details: c terminus: a fixed tail appended;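 note: lentivirally expressed fusions sorted by FACS into six bins by GFP to DsRed ratio, PSI derived from sequencing read proportions per bin multiplied by bin number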
Assay readout: protein stability index

[[record]]
sequence_variant = "V3Y"
assay_readout = "protein stability index"
numeric_readout = 5.04

[[record]]
sequence_variant = "V3E"
assay_readout = "protein stability index"
numeric_readout = 5.36

[[record]]
sequence_variant = "L6C"
assay_readout = "protein stability index"
numeric_readout = 4.55

[[record]]
sequence_variant = "E17F"
assay_readout = "protein stability index"
numeric_readout = 3.61

[[record]]
sequence_variant = "R18P"
assay_readout = "protein stability index"
numeric_readout = 4.18

[[record]]
sequence_variant = "P2C"
assay_readout = "protein stability index"
numeric_readout = 4.42

[[record]]
sequence_variant = "L6E"
assay_readout = "protein stability index"
numeric_readout = 5.21

[[record]]
sequence_variant = "L1C"
assay_readout = "protein stability index"
numeric_readout = 3.66

[[record]]
sequence_variant = "A22V"
assay_readout = "protein stability index"
numeric_readout = 4.2

[[record]]
sequence_variant = "E4T"
assay_readout = "protein stability index"
numeric_readout = 5.18

[[record]]
sequence_variant = "R18D"
assay_readout = "protein stability index"
numeric_readout = 4.44

[[record]]
sequence_variant = "L20A"
assay_readout = "protein stability index"
numeric_readout = 4.26

[[record]]
sequence_variant = "R11Y"
assay_readout = "protein stability index"
numeric_readout = 3.67

[[record]]
sequence_variant = "M12Y"
assay_readout = "protein stability index"
numeric_readout = 4.09

[[record]]
sequence_variant = "M12C"
assay_readout = "protein stability index"
numeric_readout = 4.32

[[record]]
sequence_variant = "P23C"
assay_readout = "protein stability index"
numeric_readout = 4.19

[[record]]
sequence_variant = "P23I"
assay_readout = "protein stability index"
numeric_readout = 4.28

[[record]]
sequence_variant = "S16M"
assay_readout = "protein stability index"
numeric_readout = 4.09

[[record]]
sequence_variant = "S16F"
assay_readout = "protein stability index"
numeric_readout = 3.85

[[record]]
sequence_variant = "R18G"
assay_readout = "protein stability index"
numeric_readout = 4.66

[[record]]
sequence_variant = "E4M"
assay_readout = "protein stability index"
numeric_readout = 4.74

[[record]]
sequence_variant = "T5V"
assay_readout = "protein stability index"
numeric_readout = 4.6

[[record]]
sequence_variant = "G7R"
assay_readout = "protein stability index"
numeric_readout = 5.12

[[record]]
sequence_variant = "T5Y"
assay_readout = "protein stability index"
numeric_readout = 4.93

